TARGET_DESC: low-density lipoprotein receptor related protein-1 (LRP-1) on THP1-XBlue-MD2-CD14 NFκB reporter cells (UniProt Q07954 20-4544)
Sequence (Q07954 20-4544 limits assumed): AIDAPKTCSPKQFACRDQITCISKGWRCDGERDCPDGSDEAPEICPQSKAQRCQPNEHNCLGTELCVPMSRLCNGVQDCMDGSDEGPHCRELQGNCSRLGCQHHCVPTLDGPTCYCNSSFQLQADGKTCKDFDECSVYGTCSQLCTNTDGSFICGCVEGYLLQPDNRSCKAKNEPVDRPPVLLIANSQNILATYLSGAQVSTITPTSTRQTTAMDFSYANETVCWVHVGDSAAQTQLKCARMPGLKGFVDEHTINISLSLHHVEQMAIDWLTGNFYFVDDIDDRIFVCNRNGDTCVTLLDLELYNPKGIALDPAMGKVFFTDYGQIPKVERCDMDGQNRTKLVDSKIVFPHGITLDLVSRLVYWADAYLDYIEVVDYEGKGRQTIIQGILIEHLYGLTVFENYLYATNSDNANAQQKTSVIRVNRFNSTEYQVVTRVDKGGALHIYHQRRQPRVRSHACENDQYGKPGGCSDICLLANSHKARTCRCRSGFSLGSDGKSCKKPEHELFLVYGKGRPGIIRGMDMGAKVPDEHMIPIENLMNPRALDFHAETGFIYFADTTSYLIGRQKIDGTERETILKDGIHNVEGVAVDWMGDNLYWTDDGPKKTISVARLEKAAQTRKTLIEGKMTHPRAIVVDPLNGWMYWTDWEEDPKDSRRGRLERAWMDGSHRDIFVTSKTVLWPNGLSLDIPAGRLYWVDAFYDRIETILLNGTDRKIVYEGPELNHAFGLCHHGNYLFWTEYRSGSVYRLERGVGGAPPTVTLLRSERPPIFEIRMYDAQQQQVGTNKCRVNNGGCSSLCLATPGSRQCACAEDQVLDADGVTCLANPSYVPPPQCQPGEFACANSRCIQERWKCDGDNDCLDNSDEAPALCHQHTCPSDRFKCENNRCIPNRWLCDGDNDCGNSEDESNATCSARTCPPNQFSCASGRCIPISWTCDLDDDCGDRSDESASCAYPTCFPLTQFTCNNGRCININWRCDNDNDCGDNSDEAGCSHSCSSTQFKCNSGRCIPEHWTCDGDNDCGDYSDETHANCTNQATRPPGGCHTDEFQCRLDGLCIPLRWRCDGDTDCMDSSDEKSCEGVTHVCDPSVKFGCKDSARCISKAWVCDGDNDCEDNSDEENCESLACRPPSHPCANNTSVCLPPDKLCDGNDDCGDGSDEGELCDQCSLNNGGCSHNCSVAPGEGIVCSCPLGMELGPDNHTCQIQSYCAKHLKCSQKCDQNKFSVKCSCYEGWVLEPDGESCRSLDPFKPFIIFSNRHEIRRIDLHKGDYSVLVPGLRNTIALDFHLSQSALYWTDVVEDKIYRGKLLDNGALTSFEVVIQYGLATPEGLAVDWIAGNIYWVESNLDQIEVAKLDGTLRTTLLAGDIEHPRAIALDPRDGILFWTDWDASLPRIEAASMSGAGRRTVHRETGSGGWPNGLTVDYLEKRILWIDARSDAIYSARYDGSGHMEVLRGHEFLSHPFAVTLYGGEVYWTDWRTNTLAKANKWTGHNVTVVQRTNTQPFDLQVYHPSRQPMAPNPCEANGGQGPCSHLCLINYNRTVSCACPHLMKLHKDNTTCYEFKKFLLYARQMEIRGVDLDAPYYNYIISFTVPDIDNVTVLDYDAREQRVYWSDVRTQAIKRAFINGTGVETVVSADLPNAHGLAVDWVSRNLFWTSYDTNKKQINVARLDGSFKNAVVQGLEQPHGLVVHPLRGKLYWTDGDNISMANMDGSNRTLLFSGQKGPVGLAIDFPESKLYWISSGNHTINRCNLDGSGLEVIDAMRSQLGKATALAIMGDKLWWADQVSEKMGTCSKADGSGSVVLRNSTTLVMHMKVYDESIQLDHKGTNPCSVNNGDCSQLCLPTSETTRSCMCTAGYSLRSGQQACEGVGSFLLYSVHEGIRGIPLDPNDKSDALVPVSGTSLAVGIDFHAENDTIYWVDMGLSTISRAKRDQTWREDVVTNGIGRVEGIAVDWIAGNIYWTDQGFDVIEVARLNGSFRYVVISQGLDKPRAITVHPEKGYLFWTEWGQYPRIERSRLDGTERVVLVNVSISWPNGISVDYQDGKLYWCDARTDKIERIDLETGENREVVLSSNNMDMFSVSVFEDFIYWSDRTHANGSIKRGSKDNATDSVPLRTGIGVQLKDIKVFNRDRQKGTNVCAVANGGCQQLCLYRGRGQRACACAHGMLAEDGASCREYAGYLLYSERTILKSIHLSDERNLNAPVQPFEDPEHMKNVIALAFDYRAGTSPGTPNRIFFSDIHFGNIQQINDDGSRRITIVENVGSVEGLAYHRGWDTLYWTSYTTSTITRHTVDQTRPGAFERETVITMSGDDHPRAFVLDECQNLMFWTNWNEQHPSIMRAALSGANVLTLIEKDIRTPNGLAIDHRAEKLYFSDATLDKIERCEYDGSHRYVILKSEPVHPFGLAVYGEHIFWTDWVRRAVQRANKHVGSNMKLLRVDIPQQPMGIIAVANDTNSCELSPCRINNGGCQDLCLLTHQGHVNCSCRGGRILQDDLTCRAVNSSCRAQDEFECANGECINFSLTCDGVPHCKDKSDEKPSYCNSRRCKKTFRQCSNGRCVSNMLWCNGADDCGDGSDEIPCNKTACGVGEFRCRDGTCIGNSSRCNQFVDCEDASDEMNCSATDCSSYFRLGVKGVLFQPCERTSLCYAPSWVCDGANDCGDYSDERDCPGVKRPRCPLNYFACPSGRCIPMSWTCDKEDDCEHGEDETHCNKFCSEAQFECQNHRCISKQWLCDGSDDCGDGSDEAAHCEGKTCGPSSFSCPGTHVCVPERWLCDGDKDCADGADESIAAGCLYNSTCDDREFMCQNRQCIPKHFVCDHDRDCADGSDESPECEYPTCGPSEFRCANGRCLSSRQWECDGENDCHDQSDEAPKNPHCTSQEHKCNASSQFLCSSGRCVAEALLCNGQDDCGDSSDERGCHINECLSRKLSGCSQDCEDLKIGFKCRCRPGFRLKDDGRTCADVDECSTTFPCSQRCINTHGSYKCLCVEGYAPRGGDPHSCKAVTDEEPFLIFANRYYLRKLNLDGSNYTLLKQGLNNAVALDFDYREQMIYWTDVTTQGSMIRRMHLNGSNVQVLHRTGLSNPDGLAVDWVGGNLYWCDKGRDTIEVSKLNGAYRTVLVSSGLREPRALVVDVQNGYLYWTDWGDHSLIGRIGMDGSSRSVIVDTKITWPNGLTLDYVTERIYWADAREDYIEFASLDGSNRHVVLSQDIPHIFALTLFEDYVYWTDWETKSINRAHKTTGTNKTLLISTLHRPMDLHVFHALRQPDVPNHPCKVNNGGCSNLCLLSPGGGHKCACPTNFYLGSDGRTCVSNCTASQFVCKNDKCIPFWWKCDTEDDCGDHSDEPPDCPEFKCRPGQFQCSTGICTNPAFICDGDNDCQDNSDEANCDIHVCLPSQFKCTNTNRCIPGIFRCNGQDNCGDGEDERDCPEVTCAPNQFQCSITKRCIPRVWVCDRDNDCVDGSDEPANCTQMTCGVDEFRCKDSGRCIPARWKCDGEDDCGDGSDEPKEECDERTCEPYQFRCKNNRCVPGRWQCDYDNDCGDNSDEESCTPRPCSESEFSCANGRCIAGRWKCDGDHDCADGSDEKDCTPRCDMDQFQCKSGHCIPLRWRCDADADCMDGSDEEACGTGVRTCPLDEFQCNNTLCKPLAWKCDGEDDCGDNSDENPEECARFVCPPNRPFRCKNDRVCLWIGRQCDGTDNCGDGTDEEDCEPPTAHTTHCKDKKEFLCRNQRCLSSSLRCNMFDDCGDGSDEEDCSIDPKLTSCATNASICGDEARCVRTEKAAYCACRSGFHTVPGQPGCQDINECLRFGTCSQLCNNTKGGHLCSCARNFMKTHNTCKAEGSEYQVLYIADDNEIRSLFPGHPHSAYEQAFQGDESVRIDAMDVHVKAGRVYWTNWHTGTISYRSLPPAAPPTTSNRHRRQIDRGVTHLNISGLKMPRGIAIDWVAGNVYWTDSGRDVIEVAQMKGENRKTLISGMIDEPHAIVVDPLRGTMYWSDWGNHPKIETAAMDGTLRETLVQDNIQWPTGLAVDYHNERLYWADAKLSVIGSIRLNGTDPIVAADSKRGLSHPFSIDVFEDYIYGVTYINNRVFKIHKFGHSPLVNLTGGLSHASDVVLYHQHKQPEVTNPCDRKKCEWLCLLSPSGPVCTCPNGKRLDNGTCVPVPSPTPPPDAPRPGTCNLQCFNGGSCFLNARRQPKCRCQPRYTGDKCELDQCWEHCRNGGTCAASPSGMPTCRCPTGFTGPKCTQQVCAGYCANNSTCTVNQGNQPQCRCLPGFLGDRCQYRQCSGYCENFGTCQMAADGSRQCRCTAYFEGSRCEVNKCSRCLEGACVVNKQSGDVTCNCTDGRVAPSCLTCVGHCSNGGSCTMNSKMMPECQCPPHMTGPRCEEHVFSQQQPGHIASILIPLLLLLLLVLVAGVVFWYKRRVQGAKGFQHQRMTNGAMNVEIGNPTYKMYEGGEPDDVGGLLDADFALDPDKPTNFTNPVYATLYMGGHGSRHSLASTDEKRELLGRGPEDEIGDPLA
PROTOCOL: cell-based or functional assay
Positions of bridges follow the written chain, without caps; N, C: chain ends. Non-standard residues stand in square brackets, D forms with d. No end group written: not given here. Nle = CCCC[C@H](N)C(=O)O; Dap = NC[C@H](N)C(=O)O; Nal = naphthylalanine
Threshold check on EC50, NFκB (reduction of NFκB activation, SEAP reporter cells, LPS): strictly below 3 µg/mL is satisfied; on or above 3 µg/mL is not satisfied.

query: For RRRFVFLSD (not fully specified; D-Ser at position 8; cyclic (HN- at the N-terminus (so in the source))) [SERPIN peptide derivative A2-5, HN-RRRFVFL[dS]D (cyclic)] , is the recorded EC50, NFκB (reduction of NFκB activation, SEAP reporter cells, LPS) below the cut-off of 3 µg/mL?
result: satisfied

query: For RRRFVFLAD (not fully specified; cyclic (HN- at the N-terminus (so in the source))) [SERPIN peptide derivative A2-3, HN-RRRFVFLAD (cyclic)] , is the recorded EC50, NFκB (reduction of NFκB activation, SEAP reporter cells, LPS) below the cut-off of 3 µg/mL?
result: satisfied

query: For Ac-RRR[Dap]FT[Nal]L[Nle]D [SERPIN peptide derivative A2-1, Ac-RRR[Dap]FT[Nal]L[Nle]D (cyclic)] , is the recorded EC50, NFκB (reduction of NFκB activation, SEAP reporter cells, LPS) below the cut-off of 3 µg/mL?
result: not satisfied

query: For RRRFVFLXD (not fully specified; Nle (norleucine) at position 8; cyclic: head-to-tail linker between the amino group of the N-terminal Arg and the side-chain carboxylic acid of the C-terminal Asp, ring closing length 12 C-C bonds) [SERPIN peptide derivative A15, HN-RRRFVFL[Nle]D (cyclic)] , is the recorded EC50, NFκB (reduction of NFκB activation, SEAP reporter cells, LPS) below the cut-off of 3 µg/mL?
result: not satisfied

query: For RRRFVFLXD (not fully specified; D-Dap at position 8; cyclic (HN- at the N-terminus (so in the source))) [SERPIN peptide derivative A3-10, HN-RRRFVFL[dDap]D (cyclic)] , is the recorded EC50, NFκB (reduction of NFκB activation, SEAP reporter cells, LPS) below the cut-off of 3 µg/mL?
result: satisfied

query: For RRRFVFLD (not fully specified; cyclic (HN- at the N-terminus (so in the source))) [SERPIN peptide derivative A2-4, HN-RRRFVFLD (cyclic)] , is the recorded EC50, NFκB (reduction of NFκB activation, SEAP reporter cells, LPS) below the cut-off of 3 µg/mL?
result: not satisfied

query: For Ac-RRRCPFVFL[Nle]C (disulfide 4-11 (inferred)) [SERPIN peptide derivative SA7, Ac-RRRCPFVFL[Nle]C (cyclic)] , is the recorded EC50, NFκB (reduction of NFκB activation, SEAP reporter cells, LPS) below the cut-off of 3 µg/mL?
result: not satisfied

Origin of values: patent US20250353898A1
